# testMethodNotes: protein stability index of a GFP-peptide fusion (yeast GPS) (PSI 1-4); higher = more stable; sorted into four equal gates, so the index is relative within each strain
# conditionSet: pdr5∆
Answer each item with its documented protein stability index.
Give bare numbers.

Recorded results for 5 sequences are shown here.
KIAKRRQVYKPVLDNPF [POP3]
2.33
MFANMKVLGVKDMSPIL [LRP1]
1.52
SKEQIHGSIIILGMLSL [YCS4]
2.32
YQSLKQIVQVLKQPPFQ [SSN8]
2.22
KGSRQCRVCSSHTGLIR [RPS29A]
2.93

Batch of 5 sequences: report protein stability index for each.
1. KPAFSFGATTNDDKKTE [YJL041W/NSP1]
2. INDIRDDDIEKQEQEEK [YCG1]
3. PSQGMVVEISNGNTSSK [FAS1]
4. QQLQVLARYLKMDLDNG [FAS2]
5. NGEEIVGFWKDDGDDED [MTR3]

Response:
[3.07, 2.79, 3.27, 2.04, 2.66]

Batch of 2 sequences: report protein stability index for each.
1. PSPKKVAIDQDKITLHD [SIR4]
2. LPGTEKGRKTNKYANND [CSL4]

Response:
1. 2.53
2. 3.5

Batch of 3 sequences: report protein stability index for each.
1. KSKLFEWKSEFVVPTFG [SNM1]
2. RSIRGSFTSQGTISIQL [MTR3]
3. AVIAAIMQEAGLRAVRK [RPT3]

Response:
[1.63, 2.73, 1.15]

Numbers sourced from the supplement of paper PMC9732359.
